Below, each entry is listed with its recorded Relative activity (%) of dextranase.
# TARGET OR SYSTEM: dextranase (Arthrobacter sp.)
# Construct: the mature dextranase protein consisting of 591 amino acid residues; endogenous in cells; host or cells: Arthrobacter sp; CB-8 (FERM BP-995), enzyme purified from the culture
# Sequence (P39652 50-640): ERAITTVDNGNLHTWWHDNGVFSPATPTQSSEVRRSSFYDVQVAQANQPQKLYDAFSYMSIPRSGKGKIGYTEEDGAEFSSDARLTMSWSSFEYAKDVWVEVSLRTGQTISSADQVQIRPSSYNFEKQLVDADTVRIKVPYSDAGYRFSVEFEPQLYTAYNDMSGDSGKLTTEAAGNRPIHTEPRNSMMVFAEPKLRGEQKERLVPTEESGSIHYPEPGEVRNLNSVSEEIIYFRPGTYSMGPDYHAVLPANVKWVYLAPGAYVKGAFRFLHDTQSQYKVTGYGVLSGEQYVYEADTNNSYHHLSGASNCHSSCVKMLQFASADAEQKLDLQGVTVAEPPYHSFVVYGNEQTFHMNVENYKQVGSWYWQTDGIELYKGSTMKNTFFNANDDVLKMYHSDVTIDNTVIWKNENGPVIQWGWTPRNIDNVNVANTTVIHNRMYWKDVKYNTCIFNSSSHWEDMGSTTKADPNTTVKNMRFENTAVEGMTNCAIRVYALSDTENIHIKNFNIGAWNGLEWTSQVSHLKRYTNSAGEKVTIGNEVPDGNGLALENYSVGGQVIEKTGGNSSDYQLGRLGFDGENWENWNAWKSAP
# ASSAY NOTES: Effects of metallic ions and enzyme inhibitors on dextranase activity
# Type: biochemical, Arthrobacter sp. CB-8
# CONDITION CONTEXT: metallic ion or inhibitor 1 mM; none = 100

Example cases with answers are listed next.
- CHEMICAL SMILES: "[Cl][Mn][Cl]"
  VAL: "77%"
- CHEMICAL SMILES: "[Cl][Fe][Cl]"
  VAL: "115%"
- CHEMICAL SMILES: "[Cl-].[Cl-].[Zn+2]"
  VAL: "77%"
- CHEMICAL SMILES: "[Cl][Fe]([Cl])[Cl]"
  VAL: "104%"
- CHEMICAL SMILES: "O=C(O)c1cc[c]([Hg][Cl])cc1"
  VAL: "29%"
- CHEMICAL SMILES: "O=S(=O)([O-])[O-].[Mg+2]"
  VAL: "113%"

**Q:** Could you share which Relative activity (%) of dextranase value was measured for [Ca+2].[Cl-].[Cl-] ?
**A:** 113%

**Q:** Could you share which Relative activity (%) of dextranase value was measured for [Cl][Pb][Cl] ?
**A:** 103%
